- experimental_target: CBP-KIX c-Mybmut (Y650A, A654Q, and Y658A) (UniProt P45481 586-672, Y650A | A654Q | Y658A)
- Sequence (P45481 586-672 Y650A/A654Q/Y658A): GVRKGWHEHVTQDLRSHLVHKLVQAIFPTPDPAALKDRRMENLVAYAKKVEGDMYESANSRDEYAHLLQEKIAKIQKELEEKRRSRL
- assay_text: ITC
property_label: Kd (nM)
Please reply with the bare figure in nM and do not write the unit itself.

Please look up its Kd: DLDLDMYMENLECDMDNIISDLMDEGEGLDFNFEPDP (domain or fragment, UniProt P98177 469-505, looked up) [FOXO4-CR3 (conserved region 3, transactivation domain of FOXO4, aa 469–505)]
1200
